Test system: serotonin-2 receptor
Assay: Anti-serotonin action (anti-5-HT action): contraction of isolated superior mesenteric artery induced by serotonin
Details: test drug 10^−7 M; contraction induced by 10^−5 M serotonin (5-HT) taken as 100%; Hartley male guinea pig superior mesenteric artery
Experimental: (1) Anti-Serotonin Action (Anti-5-HT Action) A preparation cut in a helical form was suspended under 0.3 g load in a Magnus cylinder filled with the Tyrode solution which had been aerated with a gas mixture of 95% O2+5% CO2 and maintained at 37° C. Using an isometric transducer (“UL-10”, manufactured by SHINKOH K.K.) and a pressure preamplifier (“DSA-605A”, manufactured by SHINKOH K.K.), variations in tension were measured. […]
Recorded measurements of Anti 5-HT action (% of Control) 10^−7 M, one per entry
reported.property: Anti 5-HT action (% of Control) 10^−7 M

# molecule, result
records = [
    ("O=S1(=O)c2ccccc2C2(CN1CCCN1CCN(c3ccccc3F)CC1)OCCO2 [compound 35]", "38.3 % of Control"),
    ("O=C(c1ccc(F)cc1)C1CCN(CCCN2CC(O)c3ccccc3S2(=O)=O)CC1 (centres unmarked) [Compound No. 76]", "53.9 % of Control"),
    ("O=S1(=O)c2ccccc2C2(CN1CCCN1CCN(c3ccc(F)cc3)CC1)SCCS2 [Compound No. 66]", "66.6 % of Control"),
    ("COc1cccc2c1C1(CN(CCCN3CCN(c4ccc(F)cc4)CC3)S2(=O)=O)OCCO1 [Compound No. 110]", "5.6 % of Control"),
    ("O=S1(=O)c2cccc(Cl)c2C2(CN1CCCN1CCN(c3ccc(F)cc3)CC1)OCCO2 [Compound No. 113]", "49.5 % of Control"),
    ("COc1ccc2c(c1)C1(CN(CCCN3CCC(C(=O)c4ccc(F)cc4)CC3)S2(=O)=O)OCCO1 [Compound No. 116]", "40.2 % of Control"),
    ("COC1CN(CCCN2CCN(c3ccc(F)cc3)CC2)S(=O)(=O)c2ccccc21 (centres unmarked) [Compound No. 57]", "22.0 % of Control"),
    ("O=S1(=O)c2ccccc2C2(CN1CCCN1CCN(c3ccc(F)cc3)CC1)OCCO2 [Compound No. 62]", "14.1 % of Control"),
]
